- test.target: mouse Tas2r144 (Mus musculus, UniProt Q7TQB8)
- Construct: expressed in transfected cells; host or cells: HEK293T-Gα16gust44
- Sequence (Q7TQB8 whole entry): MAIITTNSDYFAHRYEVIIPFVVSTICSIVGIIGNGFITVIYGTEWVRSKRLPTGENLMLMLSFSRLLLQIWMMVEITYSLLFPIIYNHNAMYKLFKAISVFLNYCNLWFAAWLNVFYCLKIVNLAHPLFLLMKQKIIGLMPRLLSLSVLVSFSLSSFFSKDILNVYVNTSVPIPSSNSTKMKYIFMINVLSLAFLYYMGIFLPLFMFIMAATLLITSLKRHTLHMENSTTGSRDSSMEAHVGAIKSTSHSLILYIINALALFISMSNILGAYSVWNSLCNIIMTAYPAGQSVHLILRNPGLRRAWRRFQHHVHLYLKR
- method: Calcium imaging assay (FLIPR), HEK293T-Gα16gust44 cells transfected with mouse Tas2r144
- Format: cell-based
- condition.details: Time 112.781 s
Would you mind telling me the reported RLU of each entry?
Numeric only. Scale: RLU

Q. Value lookup for RLU; key = C[C@H](CCC(=O)NCCS(=O)(=O)O)[C@H]1CC[C@H]2[C@@H]3[C@H](O)C[C@@H]4C[C@H](O)CC[C@]4(C)[C@H]3C[C@H](O)[C@]12C
A. 531.02

Q. Entry to check: C[C@H](CCC(=O)NCC(=O)O)[C@H]1CC[C@H]2[C@@H]3[C@H](O)C[C@@H]4C[C@H](O)CC[C@]4(C)[C@H]3C[C@H](O)[C@]12C
A. 352.628

Q. Would you kindly repeat that for C[C@H](CCC(=O)NCCS(=O)(=O)O)[C@H]1CC[C@H]2[C@@H]3CC[C@@H]4C[C@H](O)CC[C@]4(C)[C@H]3CC[C@]12C ?
A. 389.586

Q. Then what about the molecule C[C@H](CCC(=O)O)[C@H]1CC[C@H]2[C@@H]3[C@H](O)C[C@@H]4C[C@H](O)CC[C@]4(C)[C@H]3C[C@H](O)[C@]12C ?
A. 439.768

###

- test.target: mouse Tas2r108 (Mus musculus, UniProt Q9JKT3)
- Construct: expressed in transfected cells; host or cells: HEK293T-Gα16gust44
- Sequence (Q9JKT3 whole entry): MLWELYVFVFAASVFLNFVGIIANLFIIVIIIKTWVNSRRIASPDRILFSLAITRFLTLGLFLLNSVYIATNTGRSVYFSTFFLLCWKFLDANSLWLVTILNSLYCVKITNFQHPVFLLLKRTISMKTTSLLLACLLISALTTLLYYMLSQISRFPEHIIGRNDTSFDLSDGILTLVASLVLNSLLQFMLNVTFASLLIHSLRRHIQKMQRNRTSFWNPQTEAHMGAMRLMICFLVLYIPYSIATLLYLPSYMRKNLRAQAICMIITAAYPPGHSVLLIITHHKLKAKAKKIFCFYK
- method: Calcium imaging assay (FLIPR), HEK293T-Gα16gust44 cells transfected with mouse Tas2r108
- Format: cell-based
- condition.details: Time 221.562 s
Kindly state RLU for each of the entries shown.
Give just the numeric value; RLU need not be written.

Q. Item C[C@H](CCC(=O)O)[C@H]1CC[C@H]2[C@@H]3CC[C@@H]4C[C@H](O)CC[C@]4(C)[C@H]3C[C@H](O)[C@]12C has what recorded RLU?
A. 492.546

Q. Would you kindly repeat that for C[C@H](CCC(=O)NCCS(=O)(=O)O)[C@H]1CC[C@H]2[C@@H]3[C@H](O)C[C@@H]4C[C@H](O)CC[C@]4(C)[C@H]3C[C@H](O)[C@]12C ?
A. 216.644

Q. One more compound: C[C@H](CCC(=O)O)[C@H]1CC[C@H]2[C@@H]3[C@H](O)C[C@@H]4C[C@H](O)CC[C@]4(C)[C@H]3C[C@H](O)[C@]12C
A. 158.451

Q. Input C[C@H](CCC(=O)NCC(=O)O)[C@H]1CC[C@H]2[C@@H]3[C@H](O)C[C@@H]4C[C@H](O)CC[C@]4(C)[C@H]3C[C@H](O)[C@]12C
A. 153.254

###

Provide the recorded RLU for the entries that follow.
- test.target: human TAS2R1 (Homo sapiens, UniProt Q9NYW7)
- Construct: expressed in transfected cells; host or cells: HEK293T-Gα16gust44
- Sequence (Q9NYW7 1-299): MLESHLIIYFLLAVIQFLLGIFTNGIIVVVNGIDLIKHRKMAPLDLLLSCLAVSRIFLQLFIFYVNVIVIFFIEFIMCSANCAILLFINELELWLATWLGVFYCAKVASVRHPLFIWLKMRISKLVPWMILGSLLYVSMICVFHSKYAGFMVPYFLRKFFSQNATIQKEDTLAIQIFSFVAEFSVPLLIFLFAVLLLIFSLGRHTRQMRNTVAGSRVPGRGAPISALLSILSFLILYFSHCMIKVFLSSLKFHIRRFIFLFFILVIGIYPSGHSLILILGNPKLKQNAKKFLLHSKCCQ
- method: Calcium imaging assay (FLIPR), HEK293T-Gα16gust44 cells transfected with human TAS2R1
- Assay type: cell-based
- condition.details: Time 120.796 s
Supply the numeric figure in RLU, leaving out any unit text.

Q. Value lookup for RLU; key = C[C@H](CCC(=O)O)[C@H]1CC[C@H]2[C@@H]3[C@H](O)C[C@@H]4C[C@H](O)CC[C@]4(C)[C@H]3CC[C@]12C
A. 582.22

Q. Note, next up: C[C@H](CCC(=O)O)[C@H]1CC[C@H]2[C@@H]3[C@@H](O)C[C@@H]4C[C@H](O)CC[C@]4(C)[C@H]3CC[C@]12C
A. 321.799

Q. Same read-out for C[C@H](CCC(=O)O)[C@H]1CC[C@H]2[C@@H]3[C@H](O)C[C@@H]4C[C@H](O)CC[C@]4(C)[C@H]3C[C@H](O)[C@]12C ?
A. 483.731

Q. Item: C[C@H](CCC(=O)O)[C@H]1CC[C@H]2[C@@H]3CC[C@@H]4C[C@H](O)CC[C@]4(C)[C@H]3CC[C@]12C
A. 851.852

###

- test.target: human TAS2R1 (Homo sapiens, UniProt Q9NYW7)
- Construct: expressed in transfected cells; host or cells: HEK293T-Gα16gust44
- method: Calcium imaging assay (FLIPR), HEK293T-Gα16gust44 cells transfected with human TAS2R1
- Assay type: cell-based
- condition.details: Time 6.015 s
- Protocol: This set of bile acids was chosen because of their commercial availability in high purities, their diversity within the class of bile acids and their previous detection and quantitation in human blood. Stock solutions were prepared in DMSO. […] Measured data were negative control corrected by subtracting the signal of the mock-transfected cells and exported to Microsoft Excel using the FLIPR software ScreenWorks 4.2. […]
Would you mind telling me the reported RLU of each entry?
Provide only the numeric value, understood in RLU.

Q. Look up RLU for this compound: C[C@H](CCC(=O)O)[C@H]1CC[C@H]2[C@@H]3[C@H](O)C[C@@H]4C[C@H](O)CC[C@]4(C)[C@H]3C[C@H](O)[C@]12C [Cholic Acid, cholic acid]
A. -30.3104

Q. Same again, this time with C[C@H](CCC(=O)O)[C@H]1CC[C@H]2[C@@H]3[C@@H](O)C[C@@H]4C[C@H](O)CC[C@]4(C)[C@H]3CC[C@]12C [Ursodeoxycholic Acid, ursodeoxycholic acid]
A. -25.0303

Q. // same read-out, input: C[C@H](CCC(=O)O)[C@H]1CC[C@H]2[C@@H]3[C@H](O)C[C@@H]4C[C@H](O)CC[C@]4(C)[C@H]3CC[C@]12C [Chenodeoxycholic Acid, chenodeoxycholic acid]
A. -17.015

Q. And for C[C@H](CCC(=O)O)[C@H]1CC[C@H]2[C@@H]3CC[C@@H]4C[C@H](O)CC[C@]4(C)[C@H]3CC[C@]12C [Lithocholic Acid, lithocholic acid] ?
A. 1.224

###

- test.target: human TAS2R14 (Homo sapiens, UniProt Q9NYV8)
- Construct: expressed in transfected cells; host or cells: HEK293T-Gα16gust44
- Sequence (Q9NYV8 whole entry): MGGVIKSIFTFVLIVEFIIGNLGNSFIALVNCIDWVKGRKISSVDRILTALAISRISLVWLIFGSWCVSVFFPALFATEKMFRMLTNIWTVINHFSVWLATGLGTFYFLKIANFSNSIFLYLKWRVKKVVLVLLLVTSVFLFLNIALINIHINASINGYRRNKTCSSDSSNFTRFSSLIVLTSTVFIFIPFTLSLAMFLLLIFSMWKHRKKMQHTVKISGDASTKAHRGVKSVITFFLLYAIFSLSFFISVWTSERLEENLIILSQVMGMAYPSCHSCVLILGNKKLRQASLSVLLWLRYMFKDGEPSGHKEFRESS
- method: Calcium imaging assay (FLIPR), HEK293T-Gα16gust44 cells transfected with human TAS2R14
- Format: cell-based
- condition.details: TAS2R14 trace; Time (s) 4 (Taurocholic Acid 4.016)
Field: RLU. Provide a value for each of the molecules that follow.
State just the number; it will be interpreted in RLU.

Q. Need RLU of C[C@H](CCC(=O)O)[C@H]1CC[C@H]2[C@@H]3[C@H](O)C[C@@H]4C[C@H](O)CC[C@]4(C)[C@H]3CC[C@]12C , thanks.
A. -25.5098

Q. Please give the result for C[C@H](CCC(=O)NCCS(=O)(=O)O)[C@H]1CC[C@H]2[C@@H]3[C@H](O)C[C@@H]4C[C@H](O)CC[C@]4(C)[C@H]3C[C@H](O)[C@]12C too.
A. -13.3747

Q. Also need C[C@H](CCC(=O)NCCS(=O)(=O)O)[C@H]1CC[C@H]2[C@@H]3CC[C@@H]4C[C@H](O)CC[C@]4(C)[C@H]3CC[C@]12C , thanks.
A. -5.108

Q. Now consider C[C@H](CCC(=O)O)[C@H]1CC[C@H]2[C@@H]3[C@H](O)C[C@@H]4C[C@H](O)CC[C@]4(C)[C@H]3C[C@H](O)[C@]12C .
A. -17.1002

Q. And what about the molecule C[C@H](CCC(=O)NCC(=O)O)[C@H]1CC[C@H]2[C@@H]3[C@H](O)C[C@@H]4C[C@H](O)CC[C@]4(C)[C@H]3C[C@H](O)[C@]12C ?
A. -9.1

###

- test.target: human TAS2R4 (Homo sapiens)
- Construct: expressed in transfected cells; host or cells: HEK293T-Gα16gust44
- Sequence (Q9NYW5 whole entry): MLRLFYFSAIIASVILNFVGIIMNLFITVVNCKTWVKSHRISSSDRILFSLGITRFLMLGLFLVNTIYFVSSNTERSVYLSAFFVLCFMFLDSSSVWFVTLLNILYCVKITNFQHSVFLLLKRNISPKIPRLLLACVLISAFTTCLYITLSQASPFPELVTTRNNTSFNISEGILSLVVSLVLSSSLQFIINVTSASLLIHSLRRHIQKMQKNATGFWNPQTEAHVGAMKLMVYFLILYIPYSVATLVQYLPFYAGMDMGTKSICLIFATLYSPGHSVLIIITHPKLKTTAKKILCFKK
- method: Calcium imaging assay (FLIPR), HEK293T-Gα16gust44 cells transfected with human TAS2R4; note: test concentration or dose not given here
- Assay type: cell-based
- condition.details: Time (s) 167.547
Hi there, I'd appreciate the recorded RLU, fluorescence trace for every entry that follows.
Write the answer as a number in RLU, unit excluded.

Q. May I ask what RLU, fluorescence trace has been recorded for C[C@H](CCC(=O)NCCS(=O)(=O)O)[C@H]1CC[C@H]2[C@@H]3CC[C@@H]4C[C@H](O)CC[C@]4(C)[C@H]3CC[C@]12C ?
A. 205.902

Q. How about this compound: C[C@H](CCC(=O)NCCS(=O)(=O)O)[C@H]1CC[C@H]2[C@@H]3[C@H](O)C[C@@H]4C[C@H](O)CC[C@]4(C)[C@H]3C[C@H](O)[C@]12C
A. 435.019

Q. Thanks! And C[C@H](CCC(=O)O)[C@H]1CC[C@H]2[C@@H]3[C@H](O)C[C@@H]4C[C@H](O)CC[C@]4(C)[C@H]3C[C@H](O)[C@]12C ?
A. 335.172
